# System: NCI-H460
# Procedure Summary: Cytotoxicity against human NCI-H460 cells assessed as growth inhibition at 10 uM cotreated with G6PD inhibitor 6-AN after 72 hrs by MTT assay
# Type: cell-based
# Measurement Setup: nci-h460, 72 h
Value Kind: growth inhibition (GI)

Compound	Result
COc1cc(NC(C)CCCNC(=O)NC(C(=O)NC(c2ccccc2)c2ccc(Cl)cc2)c2ccccc2)c2ncccc2c1 (stereo unspecified)	Non-Toxic
COc1cc(NC(C)CCCNC(=O)NC(CC(C)C)C(=O)NC(c2ccccc2)c2ccccc2)c2ncccc2c1 (stereo unspecified)	Non-Toxic
COc1cc(NC(C)CCCNC(=O)NNC(=O)NCCNC(c2ccccc2)(c2ccccc2)c2ccccc2)c2ncccc2c1 (stereo unspecified)	Toxic
COc1ccc(C(=NNC(=O)NNC(=O)NCCCC(C)Nc2cc(OC)cc3cccnc23)c2ccc(OC)cc2)cc1 (stereo unspecified)	Toxic
COc1ccc(C(=NNC(=O)NCCCC(C)Nc2cc(OC)cc3cccnc23)c2ccc(OC)cc2)cc1 (stereo unspecified)	Toxic
COc1cc(NC(C)CCCNC(=O)NC(C(=O)NC(c2ccccc2)c2ccc(Cl)cc2)c2ccc(Cl)cc2)c2ncccc2c1 (stereo unspecified)	Non-Toxic
